Reported values of EC50 for individual entries
Target: proteasome in Molt-4 cells (human leukemia) (Homo sapiens, UniProt P20618+P28074)
Assay type: cell-based
Conditions: assay of Example E, inhibition of MOLT4; read-out: MOLT4 (EC50)
assay-readout: EC50

compound	assay-readout	recorded-measurement
COCCOCCOCC(=O)NCC(=O)N[C@@H](CC(C)C)B1O[C@@H]2C[C@@H]3C[C@@H](C3(C)C)[C@]2(C)O1 [D.2.8]	EC50	< 200 nM
CCCCc1ccc(C(=O)N[C@@H](CNC(=O)c2ccc(C)cc2)C(=O)N[C@@H](CC(C)C)B2O[C@@H]3C[C@@H]4C[C@@H](C4(C)C)[C@]3(C)O2)cc1 [D.24.6]	EC50	< 200 nM
CC(C)C[C@H](NC(=O)[C@H](CCCN/C(N)=N/[N+](=O)[O-])NC(=O)C(CCCCCCCCN1C(=O)c2ccccc2C1=O)C1CCCC1)B(O)O (stereo partly drawn) [E.1.21]	EC50	< 200 nM
CCOc1ccc(C(=O)N[C@@H](CCCNC(=N)N[N+](=O)[O-])C(=O)N[C@@H](CC(C)C)B2O[C@@H]3C[C@@H]4C[C@@H](C4(C)C)[C@]3(C)O2)cc1 [D.3.91]	EC50	< 200 nM
CC(C)C[C@H](NC(=O)[C@H](CCCNC(=N)N[N+](=O)[O-])NC(=O)c1ccc(-n2cccc2)cc1)B1O[C@@H]2C[C@@H]3C[C@@H](C3(C)C)[C@]2(C)O1 [D.3.64]	EC50	< 200 nM
COCCOCCOCC(=O)N[C@H](C(=O)N[C@@H](CC(C)C)B1O[C@@H]2C[C@@H]3C[C@@H](C3(C)C)[C@]2(C)O1)[C@@H](C)O [D.3.175]	EC50	200 to 2000 nM

###

Biological target: proteasome in Molt-4 cells (human leukemia) (Homo sapiens, UniProt P20618+P28074)
Sequence (P28074 60-263): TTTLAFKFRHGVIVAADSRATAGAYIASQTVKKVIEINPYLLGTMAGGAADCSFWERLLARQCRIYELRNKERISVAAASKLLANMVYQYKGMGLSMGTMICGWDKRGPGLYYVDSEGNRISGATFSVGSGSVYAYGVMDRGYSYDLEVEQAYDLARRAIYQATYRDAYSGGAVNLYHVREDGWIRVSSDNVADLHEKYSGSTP
Sequence (P20618 29-241): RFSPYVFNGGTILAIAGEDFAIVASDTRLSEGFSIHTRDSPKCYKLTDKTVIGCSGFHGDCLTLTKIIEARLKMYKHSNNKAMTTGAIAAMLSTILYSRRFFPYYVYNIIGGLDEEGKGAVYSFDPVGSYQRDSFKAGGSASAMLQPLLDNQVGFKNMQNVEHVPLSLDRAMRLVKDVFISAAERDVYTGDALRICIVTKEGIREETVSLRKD
Assay type: cell-based
Conditions: assay of Example E, inhibition of MOLT4; read-out: MOLT4 (EC50)

compound	EC50
CC(C)C[C@H](NC(=O)[C@H](CCCNC(=N)N[N+](=O)[O-])NC(=O)[C@@H](C)c1ccccc1)B(O)O	> 10000 nM
CCCCOCC(=O)N[C@@H](CCCNC(=N)N[N+](=O)[O-])C(=O)N[C@@H](CC(C)C)B1O[C@@H]2C[C@@H]3C[C@@H](C3(C)C)[C@]2(C)O1	< 200 nM
CC(C)C[C@H](NC(=O)[C@H](CCCNC(=N)N[N+](=O)[O-])NC(=O)/C=C/c1ccc(Br)cc1)B(O)O	2000 to 10000 nM
CC(C)C[C@H](NC(=O)[C@H](CCCNC(=N)N[N+](=O)[O-])NC(=O)CSc1ncccn1)B(O)O	> 10000 nM
CC(C)C[C@H](NC(=O)[C@H](CCCNC(=N)N[N+](=O)[O-])NC(=O)CCN1C(=O)c2ccccc2C1=O)B1O[C@@H]2C[C@@H]3C[C@@H](C3(C)C)[C@]2(C)O1	200 to 2000 nM
CC(C)C[C@H](NC(=O)[C@H](CCCNC(=N)N[N+](=O)[O-])NC(=O)CCCCc1ccc(F)cc1)B(O)O	2000 to 10000 nM
CCCCc1ccc(C(=O)N[C@@H](CNC(=O)C2CC2)C(=O)N[C@@H](CC(C)C)B2O[C@@H]3C[C@@H]4C[C@@H](C4(C)C)[C@]3(C)O2)cc1	< 200 nM
CC(C)C[C@H](NC(=O)[C@H](CNC(=O)Nc1ccccc1)NC(=O)c1ccc(Oc2ccccc2)cc1)B(O)O	< 200 nM
CC(C)C[C@H](NC(=O)[C@H](CNC(=O)c1ccc(-c2ccccc2)cc1)NC(=O)c1ccc(Oc2ccccc2)cc1)B(O)O	< 200 nM
CCc1ccc(CCC(=O)N[C@@H](CCCNC(=N)N[N+](=O)[O-])C(=O)N[C@@H](CC(C)C)B2O[C@@H]3C[C@@H]4C[C@@H](C4(C)C)[C@]3(C)O2)cc1	< 200 nM
CC(C)C[C@H](NC(=O)[C@H](CCCNC(=N)N[N+](=O)[O-])NC(=O)CC1CCCCCC1)B(O)O	2000 to 10000 nM
CC(C)C[C@H](NC(=O)[C@H](CCCNC(=N)N[N+](=O)[O-])NC(=O)C1CCN(C(=O)OC(C)(C)C)CC1)B(O)O (racemic)	> 10000 nM
CC(C)C[C@H](NC(=O)[C@H](CCCNC(=N)N[N+](=O)[O-])NC(=O)CCCNC(=O)OCC1c2ccccc2-c2ccccc21)B1O[C@@H]2C[C@@H]3C[C@@H](C3(C)C)[C@]2(C)O1	< 200 nM

###

Biological target: proteasome in Molt-4 cells (human leukemia) (Homo sapiens, UniProt P20618+P28074)
Format: cell-based
Details: assay of Example E, inhibition of MOLT4; read-out: MOLT4 (EC50)
Protocol: Cellular Assay for Chymotrypsin-like activity of Proteasome in Molt-4 Cell Line The chymotrypsin-like activity of proteasome in Molt-4 cells (human leukemia) was assayed according to the following procedure. […] The concentration of free AFC was monitored every 1.5 min for 30 min ([…]) on a Polastar Optima, BMG Labtechnologies microplate reader, using an excitation wavelength of 390 nm and emission wavelength of 520 nm. […]

chemical-structure	tgt	EC50
CCCCCCCCCCCCCC(=O)N[C@@H](CCCNC(=N)N[N+](=O)[O-])C(=O)N[C@@H](CC(C)C)B1O[C@@H]2C[C@@H]3C[C@@H](C3(C)C)[C@]2(C)O1	proteasome in Molt-4 cells (human leukemia) (Homo sapiens, UniProt P20618+P28074)	200 to 2000 nM
CCCCc1ccc(C(=O)N[C@@H](CNC(=O)Nc2ccccc2)C(=O)N[C@@H](CC(C)C)B2O[C@@H]3C[C@@H]4C[C@@H](C4(C)C)[C@]3(C)O2)cc1	proteasome in Molt-4 cells (human leukemia) (Homo sapiens, UniProt P20618+P28074)	< 200 nM
CCSCC(=O)N[C@@H](CCCNC(=N)N[N+](=O)[O-])C(=O)N[C@@H](CC(C)C)B(O)O	proteasome in Molt-4 cells (human leukemia) (Homo sapiens, UniProt P20618+P28074)	> 10000 nM
Cc1ccc(OCC(=O)N[C@@H](CCCNC(=N)N[N+](=O)[O-])C(=O)N[C@@H](CC(C)C)B2O[C@@H]3C[C@@H]4C[C@@H](C4(C)C)[C@]3(C)O2)cc1C	proteasome in Molt-4 cells (human leukemia) (Homo sapiens, UniProt P20618+P28074)	< 200 nM
C/C(=C\c1ccccc1)C(=O)N[C@@H](CCCNC(=N)N[N+](=O)[O-])C(=O)N[C@@H](CC(C)C)B1O[C@@H]2C[C@@H]3C[C@@H](C3(C)C)[C@]2(C)O1	proteasome in Molt-4 cells (human leukemia) (Homo sapiens, UniProt P20618+P28074)	< 200 nM
CC(C)C[C@H](NC(=O)[C@H](CCCNC(=N)N[N+](=O)[O-])NC(=O)CCc1ccc(C(C)C)cc1)B1O[C@@H]2C[C@@H]3C[C@@H](C3(C)C)[C@]2(C)O1	proteasome in Molt-4 cells (human leukemia) (Homo sapiens, UniProt P20618+P28074)	< 200 nM

###

Molecular target: 20S Human Erythrocyte Proteasome (HEP) (Homo sapiens, UniProt P20618+P28074)
Construct: 20S Human Erythrocyte Proteasome (HEP), purchased from Immatics Biotechnologies Inc
Assay: Chymotrypsin-like activity of 20S Human Erythrocyte Proteasome (HEP), IC50 determination
Settings: assay of Example C, inhibition of HEP
Protocol: Assay for Chymotrypsin-like Activity of 20S Human Erythrocyte Proteasome (HEP) Proteasome chymotrypsin-like activity of compounds of the invention was assayed according to the following procedure. […] Inhibition of the chymotrypsin-like activity of HEP and of bovine α-chymotrypsin was determined by incubating the enzyme with various concentrations of putative inhibitors for 15 minutes at 37° C. […]
Reported values of IC50 for individual entries
assay-readout: IC50

chemical-structure	recorded-measurement
Cc1ccc(S(=O)(=O)CC(=O)N[C@@H](CCCNC(=N)N[N+](=O)[O-])C(=O)N[C@@H](CC(C)C)B2O[C@@H]3C[C@@H]4C[C@@H](C4(C)C)[C@]3(C)O2)cc1	< 100 nM
CCCCCC/C=C/CC(=O)N[C@@H](CCCNC(=N)N[N+](=O)[O-])C(=O)N[C@@H](CC(C)C)B1O[C@@H]2C[C@@H]3C[C@@H](C3(C)C)[C@]2(C)O1	< 10 nM
CC(C)C[C@H](NC(=O)[C@H](CCCNC(=N)N[N+](=O)[O-])NC(=O)CCC(=O)c1ccc(S(C)(=O)=O)cc1)B(O)O	< 10 nM
CC(C)C[C@H](NC(=O)[C@H](CCCNC(=N)N[N+](=O)[O-])NC(=O)CCCCCCC(=O)c1ccccc1)B1O[C@@H]2C[C@@H]3C[C@@H](C3(C)C)[C@]2(C)O1	< 10 nM
CC(C)=CCC[C@H](C)CC(=O)N[C@@H](CCCNC(=N)N[N+](=O)[O-])C(=O)N[C@@H](CC(C)C)B1O[C@@H]2C[C@@H]3C[C@@H](C3(C)C)[C@]2(C)O1	< 10 nM
